Tested on: CAKI-1 renal
Experiment: NCI tumour cell line growth inhibition, 48 h; in the data active = GI50 below about 0.43 µM; inactive = the rest
Classes used: active, inactive

compound	assigned.label
Cn1c(/C=C(\C#N)c2ccccc2)nc2c(N3CCOCC3)nc(Cl)nc21	inactive
CC1(C)N=C(N)N=C(N)N1c1ccc(OCCCCOc2ccc(S(=O)(=O)F)cc2)c(Cl)c1	inactive
O=c1nc2n(-c3ccc(Cl)cc3)c3ccc([N+](=O)[O-])cc3cc-2c(=O)[nH]1	inactive
O=C(Nc1cc(Cl)cc(Cl)c1)c1ccc(NC2=C(Cl)C(=O)N(Cc3ccc(Cl)cc3Cl)C2=O)cc1	inactive
CC(=O)[CH-]C(=O)c1ccccc1.CC(=O)[CH-]C(=O)c1ccccc1.CC(C)CCCC(C)[C@H]1CCC2[C@@H]3CC=C4C[C@@H]([O-])CC[C@]4(C)C3CC[C@@]21C.CC[O-].[Ti+4] (stereo partly specified)	inactive
O=C1c2cc3c(cc2-c2c1c1ccc(Cl)cc1c(=O)n2CCCNCCO)OCO3	active
Cc1c(-c2c(-c3ccc(F)o3)sc3ncnc(O[C@H](Cc4ccccc4OCc4ccnn4CC(F)(F)F)C(=O)O)c23)ccc(OCCN2CCN(C)CC2)c1Cl	inactive
COc1ccc(/C=C/C(=O)c2ccc(SC)cc2)cc1OC	inactive
CC1=C2C[C@H]3[C@@H](CC[C@@H]4CC(NS(C)(=O)=O)CC[C@@]43C)[C@@H]2CC[C@@]2(C1)O[C@@H]1C[C@H](C)CN[C@H]1[C@H]2C (stereo partly specified)	inactive
O=C1/C(=C/c2ccccc2)CN(C(=O)c2cccnc2)C/C1=C\c1ccccc1	inactive
O=C(CN1CCN(CCCOc2c(-c3ccccc3)oc3ccccc3c2=O)CC1)Nc1ccc(Cl)cc1C(=O)c1ccccc1Cl	inactive
C/C(=N/Nc1nc2ccccc2n1C)c1ccccn1	active
COc1ccccc1CCN=C1NC(=O)/C(=C/c2ccc3ncccc3c2)S1	inactive
COc1ccc(/C=C\c2cc(OC)c(OC)c(OC)c2)cc1OC(=O)c1cccc(Cn2cc(CCOC(=O)[C@H](N)Cc3cn(C)c4ccccc34)nn2)c1	active
COC(=O)C1=C(C(=O)ON)C2C=CC1(C(Cc1ccccc1)Nc1ccccc1)O2 (stereo unspecified)	inactive
Cc1cc2nc3c4cc(N)ccc4n(CCN(C)C)c3nc2cc1C	inactive

====

System: CAKI-1 renal
Experiment: NCI tumour cell line growth inhibition, 48 h

compound	TGI
CCC1(c2c(F)c(F)c(N)c(F)c2F)CCC(=O)NC1=O (configuration not stated)	> 100 µM
Nc1c2c(=O)[nH]c(=O)c2c(N)c2c(=O)c3ccccc3c(=O)c12	22.9 µM
O=C(COc1ccc(OCC(=O)N2C(=O)CSC2=Nc2ccccc2)cc1)N1C(=O)CSC1=Nc1ccccc1	47.7 µM
CC(=O)O[C@H]1C(=O)[C@@]2(C)[C@H]([C@H](OC(=O)c3cccc(C(F)(F)F)c3)[C@]3(O)C[C@H](OC(=O)[C@H](O)[C@@H](NC(=O)c4ccccc4)c4ccccc4)C(C)=C1C3(C)C)[C@]1(OC(C)=O)CO[C@@H]1C[C@@H]2O	> 25 µM
Cn1c(/C=C(\C#N)c2ccccc2)nc2c(N3CCOCC3)nc(Cl)nc21	2.21 µM
C=CC(=O)N1CCN(c2nc(=O)n(-c3c(C)ccnc3C(C)C)c3nc(-c4c(O)cccc4F)c(F)cc23)[C@@H](C)C1	> 100 µM
Cc1ccc(NC(=O)CSc2nc(C)nc3c2sc(=S)n3-c2ccccc2)cc1	> 10 µM
CC(C)(C)c1cc(C(C)(C)C)c(SS(=O)(=O)O)c(O)c1O	> 100 µM
Nc1ccc2nc(Nc3ccc(F)cc3)cnc2c1	> 100 µM
c1cc(Sc2nc(Sc3ccncc3)nc(Sc3ccncc3)n2)ccn1	> 100 µM
CC(=O)OCC1OC(n2c(-c3ccccc3)c(C(C)=O)c(-c3ccc(Cl)cc3)c(C#N)c2=S)C(OC(C)=O)C(OC(C)=O)C1OC(C)=O (configuration not stated)	> 100 µM
COc1ccc(-c2c(=O)[nH]n3c(=S)nc(-c4ccccc4)[nH]c23)cc1OC	51.6 µM
FC(F)(Sc1ccccn1)c1nc2ccccc2o1	> 100 µM
C=C(CN1C(=O)[C@H]2CCCN2C(=O)c2ccccc21)c1ccc(C(=O)O)cc1	> 100 µM
O=C(Nc1cccc(Cl)c1)c1ccc(NC2=C(Cl)C(=O)N(Cc3ccccc3)C2=O)cc1	50.8 µM
COc1cc(C)c(Cl)cc1C1=NN(c2ccc(S(N)(=O)=O)cc2)C(/C=C/c2ccccc2)C1 (configuration not stated)	19.1 µM
CCN1CCN(c2ccc(Nc3ccnc4ccc5c(nnn5C)c34)cc2)CC1	21.7 µM
COC(=O)/C([Se]c1c(C)cc(C)cc1C)=C(\[Se]c1c(C)cc(C)cc1C)C(=O)OC	> 100 µM
CC(C)(C)c1cc(C2NCCO2)cc(C(C)(C)C)c1O (configuration not stated)	> 100 µM
COc1ccc(/C=C\c2cc(OC)c(OC)c(OC)c2)cc1OC(=O)c1cccc(Cn2cc(CCOC(=O)[C@H](N)Cc3cn(C)c4ccccc34)nn2)c1	> 61.3 µM
Nc1c(Br)cc(Br)c2c1[nH]c(=O)c1ccccc12	21.3 µM
COC(=O)c1ccccc1CC1Cc2ccc3c(c2C1)CCC3 (configuration not stated)	> 100 µM
O=C1C=C(Sc2ccccc2)c2nccc3c2c1nc1ccccc13	> 100 µM
CC(=O)Nc1ccc(NC(=O)c2c(Cl)c(Cl)c(Cl)c(Cl)c2-c2nc3ccccc3[nH]2)cc1	> 100 µM
Cc1ccc(C)n1-n1c(Cc2ccccc2)n[nH]c1=O	> 100 µM
COC(=O)c1c2c(c(C)[n+]([O-])c1C)C(=O)C=C(NCc1ccc(F)c(Cl)c1)C2=O	1.9 µM
CC(=O)NC(C)(C)C1CC=C(C)CC1 (configuration not stated)	> 100 µM
COc1cc(-c2nn(-c3cccc(NC(=O)Nc4cc(C(F)(F)F)cc(C(F)(F)F)c4)c3)cc2-c2ccncc2)ccc1Cl	2.93 µM
CC(C)(C)c1nn(-c2ccccc2)c2c1C(=O)CSC(c1ccccc1Cl)N2 (configuration not stated)	22.2 µM
CCCCCC/C=C1\CCC(CN2CCCC2)C1=O (configuration not stated)	> 53.5 µM
CC(C)CC1C(=O)NCCC(NC(=O)C(N)Cc2ccc(O)cc2)C(=O)NC(Cc2ccccc2)C(=O)NC(Cc2ccccc2)NC1=O (configuration not stated)	> 100 µM
COC1CC(OC2C(C)OC(OC3C(C)OC(OC4C(O)CC(O[C@H]5CC[C@@]6(C)C(=CC[C@]7(O)[C@@H]6C[C@@H](OC(=O)/C=C/c6ccccc6)[C@@]6(C)[C@]7(O)CC[C@@]6(O)C(C)=O)C5)OC4C)CC3OC)CC2OC)OC(C)C1O (some centres not stated)	> 6.25 µM
COc1cc(C)c2c(=O)c3ccccc3n(C)c2c1	76.5 µM
Cc1ccc(NN=NCCCCN)cc1	> 100 µM
O=C1C(=O)c2ccccc2C(O)=C1CC=C(Br)Br	> 100 µM
Nc1nc(Cl)c2ncn(Cc3ccc(CCl)cc3)c2n1	9.87 µM
Cc1nc2ccc(S(=O)(=O)Nc3ccccc3)cc2c(=O)n1NC(=O)CNc1ccccc1	> 100 µM

Numbers sourced from PubChem BioAssay (NCI).
